// provenance: patent US10821100B2

tested target: Recombinant human mPGES-1 (Homo sapiens, UniProt O14684)
Construct: made in house; host or cells: CHO cells (crude microsomal fractions)
procedure summary: In-vitro screening of mPGES-1 inhibitors (inhibition of PGE2 formation from PGH2, HTRF detection)
Format: biochemical
condition label: 1 μM test compound; mPGES-1 enzyme, crude microsomal fractions; read-out: Percentage inhibition at 1 μM
reported endpoint: inhibition at 1 µM (%)
// note: answer is a bare numeric in %

Tell me reported inhibition at 1 µM for CC(C)(C)C(=O)NCc1ccc(Cl)c(-c2nn(-c3ccc(C(F)(F)F)c(F)c3)c(=O)[nH]2)c1 [Example-160] , tested with Recombinant human mPGES-1 (Homo sapiens, UniProt O14684).
96.6

Tell me reported inhibition at 1 µM for Cc1ccc(CNC(=O)C(C)(C)CF)c(C)c1-c1nn(-c2ccc(C#CC3CC3)cc2)c(=O)[nH]1 [Example-169] , tested with Recombinant human mPGES-1 (Homo sapiens, UniProt O14684).
95.5

Tell me reported inhibition at 1 µM for CC(C)(C)C(=O)NCc1ccc(Cl)c(-c2nn(-c3ccc(C#N)cc3)c(=O)[nH]2)c1F [Example-89] , tested with Recombinant human mPGES-1 (Homo sapiens, UniProt O14684).
95.3

====

Would you mind telling me the reported inhibition at 10 µM of each entry?
tested target: Recombinant human mPGES-1 (Homo sapiens, UniProt O14684)
Construct: made in house; host or cells: CHO cells (crude microsomal fractions)
procedure summary: In-vitro screening of mPGES-1 inhibitors (inhibition of PGE2 formation from PGH2, HTRF detection)
Assay type: biochemical
condition label: 10 μM test compound; mPGES-1 enzyme, crude microsomal fractions; read-out: Percentage inhibition at 10 μM
// note: answer is a bare numeric in %

Name the reported inhibition at 10 µM value associated with the compound COc1ccc(-n2nc(-c3c(Cl)ccc(CNC(=O)C(C)(C)C)c3F)[nH]c2=O)cc1 [Example-86]
96.7

Name the reported inhibition at 10 µM value associated with the compound O=C(NCc1ccc(F)cc1C(F)(F)F)c1ccc(-n2nc(-c3c(F)cccc3Cl)[nH]c2=O)cc1 [Example-28]
95.5

Name the reported inhibition at 10 µM value associated with the compound CC(C)(C)C(=O)NCc1ccc(Cl)c(-c2nn(-c3ccc(Cl)c(C(F)(F)F)c3)c(=O)[nH]2)c1 [Example-157]
96.5

Name the reported inhibition at 10 µM value associated with the compound O=c1[nH]c(-c2c(F)cccc2Cl)nn1-c1ccc(C#Cc2ccc(F)nc2)cc1 [Example-5]
86.2

Name the reported inhibition at 10 µM value associated with the compound COc1ccc(-n2nc(-c3c(F)cccc3Cl)[nH]c2=O)cc1C(=O)NC1(c2ccc(C(F)(F)F)cc2)CC1 [Example-23]
52.9

Name the reported inhibition at 10 µM value associated with the compound Cc1ccc(NC(=O)c2ccc(-n3nc(-c4c(F)cccc4Cl)[nH]c3=O)cc2)c(F)c1 [Example-35]
59.1

Name the reported inhibition at 10 µM value associated with the compound CC(C)(C)C(=O)NCc1ccc(Cl)c(-c2nn(-c3ccc(C#CC4CC4)cc3)c(=O)[nH]2)c1 [Example-167]
98.4

Name the reported inhibition at 10 µM value associated with the compound O=c1[nH]c(-c2cc(S(=O)(=O)NC3CC3)ccc2Cl)nn1-c1ccc(Cl)cc1 [Example-97]
6.88

Name the reported inhibition at 10 µM value associated with the compound CC(C)(C)C(=O)NCc1ccc(Cl)c(-c2nn(-c3ccc(C(F)(F)F)c(F)c3)c(=O)[nH]2)c1F [Example-173]
99

Name the reported inhibition at 10 µM value associated with the compound COc1cc(Cl)c(-c2nn(-c3ccc(C(F)(F)F)cc3)c(=O)[nH]2)cc1CNC(=O)C(C)(C)C [Example-127]
58.5

Name the reported inhibition at 10 µM value associated with the compound CC(C)(C)C(=O)NCc1cc(-c2nn(-c3ccc(C(F)(F)F)nc3)c(=O)[nH]2)c(Cl)cc1F [Example-129]
92.1

Name the reported inhibition at 10 µM value associated with the compound COc1cc(-c2nn(-c3c(Cl)cccc3Cl)c(=O)[nH]2)ccc1C(=O)Nc1ccc(F)c(C(F)(F)F)c1 [Example-77]
98.1

Name the reported inhibition at 10 µM value associated with the compound CC(C)(C)C#Cc1ccc(-c2nn(-c3cc(CNC(=O)C(C)(C)C)c(F)cc3Cl)c(=O)[nH]2)cc1 [Example-137]
93.1

Name the reported inhibition at 10 µM value associated with the compound COc1cc(-n2nc(-c3c(Cl)cccc3Cl)[nH]c2=O)ccc1C(=O)Nc1ccc(F)c(C(F)(F)F)c1 [Example-43]
99

Name the reported inhibition at 10 µM value associated with the compound CC(C)(C)C(=O)NCc1ccc(Cl)c(-c2nn(-c3ccc(C(F)(F)F)nc3)c(=O)[nH]2)c1F [Example-95]
99

Name the reported inhibition at 10 µM value associated with the compound Cc1ccc(-n2nc(-c3cc(CNC(=O)C(C)(C)C)ccc3Cl)[nH]c2=O)cc1C(F)(F)F [Example-158]
99.7

Name the reported inhibition at 10 µM value associated with the compound O=C(NCc1ccc(Cl)c(-n2nc(-c3ccc(C#CC4CC4)cc3)[nH]c2=O)c1)C(F)(F)F [Example-190]
100

Name the reported inhibition at 10 µM value associated with the compound O=c1[nH]c(-c2c(F)cccc2Cl)nn1-c1ccc(-c2nc(-c3ccc(Cl)cc3)no2)cc1 [Example-51]
86

Name the reported inhibition at 10 µM value associated with the compound O=C(NCc1ccc(Cl)c(-c2nn(-c3ccc(Cl)c(F)c3)c(=O)[nH]2)c1)C(F)(F)F [Example-116]
95.5

Name the reported inhibition at 10 µM value associated with the compound CC(C)S(=O)(=O)NCc1ccc(Cl)c(-c2nn(-c3ccc(C(F)(F)F)cc3)c(=O)[nH]2)c1 [Example-162]
99.3

Name the reported inhibition at 10 µM value associated with the compound COc1cc(-n2nc(-c3c(F)cccc3Cl)[nH]c2=O)ccc1C(=O)NC1(c2ccc(C(F)(F)F)cc2)CC1 [Example-27]
97.5

Name the reported inhibition at 10 µM value associated with the compound CC1(C)CCC(n2nc(-c3cc(CNC(=O)C(F)(F)F)c(F)cc3Cl)[nH]c2=O)CC1 [Example-124]
89

Name the reported inhibition at 10 µM value associated with the compound O=C(NCc1ccc(Cl)c(-n2nc(-c3ccc(C(F)(F)F)cc3F)[nH]c2=O)c1)C1CC1 [Example-92]
99.4

Name the reported inhibition at 10 µM value associated with the compound CC(C)(C)C(=O)NCc1ccc(Cl)c(-n2nc(-c3ccc(C#CC4CC4)cc3)[nH]c2=O)c1F [Example-112]
99.8

====

Would you mind telling me the reported inhibition at 10 µM of each entry?
tested target: Recombinant human mPGES-1 (Homo sapiens, UniProt O14684)
Construct: made in house; host or cells: CHO cells (crude microsomal fractions)
Sequence (O14684 1-152): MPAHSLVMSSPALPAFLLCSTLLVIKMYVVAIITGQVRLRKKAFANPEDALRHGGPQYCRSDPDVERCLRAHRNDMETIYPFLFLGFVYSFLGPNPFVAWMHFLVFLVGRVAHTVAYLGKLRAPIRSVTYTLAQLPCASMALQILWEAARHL
procedure summary: In-vitro screening of mPGES-1 inhibitors (inhibition of PGE2 formation from PGH2, HTRF detection)
Type: biochemical
condition label: 10 μM test compound; mPGES-1 enzyme, crude microsomal fractions; read-out: Percentage inhibition at 10 μM
// note: answer is a bare numeric in %

Name the reported inhibition at 10 µM value associated with the compound "CC(C)(CO)C(=O)NCc1ccc(Cl)c(-c2nn(-c3ccc(C(F)(F)F)cc3)c(=O)[nH]2)c1"
98.2

Name the reported inhibition at 10 µM value associated with the compound "CC(C)(C)C(=O)NCc1ccc(Cl)c(-c2nn(-c3ccc(Cl)cc3)c(=O)[nH]2)c1F"
99.5

Name the reported inhibition at 10 µM value associated with the compound "Cc1ccc(CNC(=O)C(C)(C)C)c(C)c1-c1nn(-c2ccc(C(F)(F)F)cc2)c(=O)[nH]1"
99.7

Name the reported inhibition at 10 µM value associated with the compound "CC(C)(C)C(=O)NCc1ccc(Cl)c(-c2nn(-c3ccc(C(F)(F)F)c(F)c3)c(=O)[nH]2)c1"
97.3

Name the reported inhibition at 10 µM value associated with the compound "CC(C)(C)C(=O)NCc1ccc(Cl)c(-n2nc(-c3ccc(CN4CCCC4)cc3)[nH]c2=O)c1"
95.9

Name the reported inhibition at 10 µM value associated with the compound "CC(C)(C)C(=O)NCc1ccc(Cl)c(-n2nc(-c3ccc(F)c(C(F)(F)F)c3)[nH]c2=O)c1"
97.8

Name the reported inhibition at 10 µM value associated with the compound "O=C(NCc1ccc(Cl)c(-n2nc(-c3ccc(C#Cc4cc(Cl)ccc4Cl)cc3F)[nH]c2=O)c1)C1CC1"
99.9

Name the reported inhibition at 10 µM value associated with the compound "COc1cc(-n2nc(-c3c(F)cccc3Cl)[nH]c2=O)ccc1C(=O)Nc1cc(C(F)(F)F)ccc1F"
98.9

Name the reported inhibition at 10 µM value associated with the compound "O=c1[nH]c(-c2cc(CNS(=O)(=O)C3CC3)ccc2Cl)nn1-c1ccc(C(F)(F)F)cc1"
98

Name the reported inhibition at 10 µM value associated with the compound "CC(C)(C)C(=O)NCc1ccc(Cl)c(-n2nc(-c3ccc(COCC(F)(F)F)cc3)[nH]c2=O)c1"
100

Name the reported inhibition at 10 µM value associated with the compound "Cc1cc(-n2nc(-c3cc(CNC(=O)C(C)(C)C)ccc3Cl)[nH]c2=O)ccc1Cl"
100

Name the reported inhibition at 10 µM value associated with the compound "CC(C)(C)C(=O)NCc1cc(-c2nn(-c3ccc(F)c(Cl)c3)c(=O)[nH]2)c(Cl)cc1F"
99.2

Name the reported inhibition at 10 µM value associated with the compound "CC1(C)CCC(n2nc(-c3cc(CNC(=O)C(F)(F)F)ccc3Cl)[nH]c2=O)CC1"
95

Name the reported inhibition at 10 µM value associated with the compound "O=c1[nH]c(-c2c(F)cccc2Cl)nn1-c1ccc(C#Cc2cnc(N3CCOCC3)nc2)cc1"
83.8

Name the reported inhibition at 10 µM value associated with the compound "CC(C)(C)C(=O)NCc1ccc(Cl)c(-c2nn(-c3ccc(Cl)c(Cl)c3)c(=O)[nH]2)c1F"
99.9

Name the reported inhibition at 10 µM value associated with the compound "Cc1cc(C)n(Cc2ccc(-c3nn(-c4cc(CNC(=O)C(C)(C)C)ccc4Cl)c(=O)[nH]3)cc2)n1"
99

Name the reported inhibition at 10 µM value associated with the compound "CC(C)(C)C(=O)NCc1ccc(Cl)c(-n2nc(-c3ccc(Cl)cc3F)[nH]c2=O)c1F"
97.2

Name the reported inhibition at 10 µM value associated with the compound "COc1ccc(-n2nc(-c3c(F)cccc3Cl)[nH]c2=O)cc1C(=O)NC1(c2ccccc2C(F)(F)F)CC1"
91.8

Name the reported inhibition at 10 µM value associated with the compound "COc1cc(-n2nc(-c3c(F)cccc3Cl)[nH]c2=O)ccc1-c1nc2cc(C)c(C)cc2n1C"
97.3

Name the reported inhibition at 10 µM value associated with the compound "COc1ccc(-n2nc(-c3c(F)cccc3Cl)[nH]c2=O)cc1C(=O)NCc1ccccc1C(F)(F)F"
87.4
